assayName: Acute toxicity in ig dosed BALB/c mouse assessed as mortality measured for 14 days
Assay type: organism-based
conditionsUsed: in vivo, po
metric: LD50 at 336 h

What measured LD50 at 336 h goes with CC(=O)O[C@@H]1c2c(ccc3ccc(=O)oc23)OC(C)(C)[C@@H]1OC(C)=O (relative stereo) ?
> 2000 mg/kg

###

assayName: Toxicity in DBA/2J mouse assessed as mortality
conditionsUsed: in vivo
metric: LD50

What measured LD50 goes with `O=c1ccc2ccccc2o1` ?
> 700 mg/kg
